assayedSystem: ERα (Homo sapiens (Human))
Sequence (P03372 whole entry): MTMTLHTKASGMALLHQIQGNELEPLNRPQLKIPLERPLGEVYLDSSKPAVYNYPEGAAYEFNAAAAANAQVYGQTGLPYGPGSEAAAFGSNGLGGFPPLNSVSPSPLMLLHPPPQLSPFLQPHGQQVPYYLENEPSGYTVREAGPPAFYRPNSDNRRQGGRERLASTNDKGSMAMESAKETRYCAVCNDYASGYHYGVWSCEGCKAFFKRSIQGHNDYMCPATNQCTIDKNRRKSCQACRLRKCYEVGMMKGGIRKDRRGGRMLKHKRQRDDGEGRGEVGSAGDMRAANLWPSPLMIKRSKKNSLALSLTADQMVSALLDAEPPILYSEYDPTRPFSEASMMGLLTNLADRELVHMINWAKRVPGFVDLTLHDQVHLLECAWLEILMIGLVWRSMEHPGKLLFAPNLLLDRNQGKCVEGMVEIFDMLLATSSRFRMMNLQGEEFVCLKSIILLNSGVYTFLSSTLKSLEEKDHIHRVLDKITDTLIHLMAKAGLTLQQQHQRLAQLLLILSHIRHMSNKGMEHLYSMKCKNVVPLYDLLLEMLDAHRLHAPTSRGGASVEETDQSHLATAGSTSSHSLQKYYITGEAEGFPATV
measurementDescription: ERα degradation assay in MCF7 cells
Assay type: cell-based
experimentalContext: 24 hours, % ER positive cells, read-out: Relative IC50
propertyLabel: DC50 (nM)

Oc1ccc2c3c(cnc2c1)-c1ccc(F)cc1OC3c1ccc(OCCN2CC(CF)C2)cc1 (single isomer, unassigned) [Example 5A]
522
Oc1ccc2c3c(cnc2c1)-c1cccc(F)c1OC3c1ccc(OCCN2CC(CF)C2)cc1 (single isomer, unassigned) [Example 6B]
9.13

P: Oc1ccc2c3c(cnc2c1)-c1cccc(Cl)c1OC3c1ccc(OCCN2CC(CF)C2)cc1 (single isomer, unassigned) [Example 4B]
Q: Cc1ccc2c(c1)OC(c1ccc(OCCN3CC(CF)C3)cc1)c1c-2cnc2cc(O)ccc12 (racemic)
R: Oc1ccc2c3c(cnc2c1)-c1cccc(C(F)(F)F)c1OC3c1ccc(OCCN2CC(CF)C2)cc1 (single isomer, unassigned) [Example 2A]
S: Cc1cccc2c1OC(c1ccc(OCCN3CC(CF)C3)cc1)c1c-2cnc2cc(O)ccc12 (racemic) [Example 8]
Number of compounds to sort: 4. Sort criterion: DC50, ascending. Reply with the labels, ordered as the question asks.
P, S, R, Q
(P: 6.89 nM, S: 17.4 nM, R: 51.2 nM, Q: 78.8 nM)

====

assayedSystem: ERα (Homo sapiens (Human))
measurementDescription: PRα inhibition (ERα functional antagonism) cell assay in MCF7 cells
experimentalContext: MCF7 cells pretreated with 0.47 nM estradiol, % PRα positive cells; read-out: Relative IC50
propertyLabel: IC50 (nM)

The following compounds have reported results that may help.
Oc1ccc2c3c(cnc2c1)-c1ccc(F)cc1OC3c1ccc(OCCN2CC(CF)C2)cc1 (single isomer, unassigned) [Example 5B]
32
Oc1ccc2c3c(cnc2c1)-c1ccc(Cl)cc1OC3c1ccc(OCCN2CC(CF)C2)cc1 (single isomer, unassigned) [Example 3B]
34.4
Oc1ccc2c3c(cnc2c1)-c1cccc(C(F)(F)F)c1OC3c1ccc(OCCN2CC(CF)C2)cc1 (racemic) [Example 2]
163

1: Oc1ccc2c3c(cnc2c1)-c1cccc(Cl)c1OC3c1ccc(OCCN2CC(CF)C2)cc1 (single isomer, unassigned) [Example 4A]
2: Oc1ccc2c3c(cnc2c1)-c1ccc(F)cc1OC3c1ccc(OCCN2CC(CF)C2)cc1 (racemic) [Example 5]
Short answer wanted: higher IC50, 1 or 2 ? Response format: the label of the selected entry.
1

====

assayedSystem: ERα (Y537S mutant) (Homo sapiens (Human), UniProt P03372, Y537S)
Sequence (P03372 whole entry Y537S): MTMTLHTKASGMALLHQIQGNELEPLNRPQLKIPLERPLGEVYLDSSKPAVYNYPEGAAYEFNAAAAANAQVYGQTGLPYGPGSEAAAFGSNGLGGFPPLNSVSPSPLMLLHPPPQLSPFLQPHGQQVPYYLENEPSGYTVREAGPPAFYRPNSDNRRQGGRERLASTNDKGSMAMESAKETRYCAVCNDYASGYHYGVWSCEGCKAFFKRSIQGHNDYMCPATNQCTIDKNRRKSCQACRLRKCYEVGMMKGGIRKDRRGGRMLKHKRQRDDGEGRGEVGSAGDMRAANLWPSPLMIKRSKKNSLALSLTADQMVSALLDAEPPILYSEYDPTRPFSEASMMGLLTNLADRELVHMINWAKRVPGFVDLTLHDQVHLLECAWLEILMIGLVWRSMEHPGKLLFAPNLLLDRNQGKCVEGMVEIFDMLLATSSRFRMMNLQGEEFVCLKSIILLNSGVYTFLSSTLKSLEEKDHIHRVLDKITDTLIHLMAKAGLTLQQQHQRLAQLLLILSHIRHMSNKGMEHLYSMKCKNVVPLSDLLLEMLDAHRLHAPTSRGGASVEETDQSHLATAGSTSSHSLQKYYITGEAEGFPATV
measurementDescription: ERα (Y537S mutant) competition binding assay
experimentalContext: 3H-estradiol competition; Ki from IC50 by Cheng-Prusoff
Description: Add the test compound at 10 different concentrations ranging from 10,000 nM to 0.5 nM, and determine nonspecific binding in the presence of 1 μM of 1713 estradiol. Incubate the binding reaction (140 μL) for 4 hours at room temperature, and then add cold dextran-charcoal buffer (70 μL) (containing per 50 mL of assay buffer, 0.75 g of charcoal and 0.25 g of dextran) to each reaction. […] After an incubation of 2.5 hours, read the plates in a Wallac Microbeta counter. […]
propertyLabel: Ki (nM)

The following compounds have reported results that may help.
Oc1ccc2c3c(cnc2c1)-c1ccc(Cl)cc1OC3c1ccc(OCCN2CC(CF)C2)cc1 (single isomer, unassigned) [Example 3B]
2.79
Oc1ccc2c3c(cnc2c1)-c1ccc(Cl)cc1OC3c1ccc(OCCN2CC(CF)C2)cc1 (single isomer, unassigned) [Example 3A]
27.2
Cc1cccc2c1OC(c1ccc(OCCN3CC(CF)C3)cc1)c1c-2cnc2cc(O)ccc12 (single isomer, unassigned) [Example 8B]
5.44
Oc1ccc2c3c(cnc2c1)-c1ccc(Cl)cc1OC3c1ccc(OCCN2CC(CF)C2)cc1 (racemic) [Example 3]
6.69

a: Cc1cccc2c1OC(c1ccc(OCCN3CC(CF)C3)cc1)c1c-2cnc2cc(O)ccc12 (racemic) [Example 8]
b: Oc1ccc2c3c(cnc2c1)-c1cccc(F)c1OC3c1ccc(OCCN2CC(CF)C2)cc1 (single isomer, unassigned) [Example 6A]
c: Oc1ccc2c3c(cnc2c1)-c1cccc(Cl)c1OC3c1ccc(OCCN2CC(CF)C2)cc1 (single isomer, unassigned) [Example 4B]
Rank the 3 compounds: largest Ki first, smallest last. Reply with the labels, ordered as the question asks.
b, a, c
